Where these numbers come from: the supplement of paper PMC10065799

# Tested on: c-Src;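 further: 11-residue human phosphosite peptides and single-mutation variants displayed on the E. coli surface, counted by deep sequencing, each peptide's frequency after selection divided by its frequency in the unselected input library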;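 further: frequency after pTyr selection over input frequency; kinase dosed for 20-30% of maximal phosphorylation in three min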
# Procedure details: phosphorylation enrichment, bacterial display (enrichment ratio); higher = better substrate or ligand; peptides without Tyr show the background
Label true when phosphorylation enrichment >= 0.6; otherwise false.

Q: Hi, just wondering whether TVLEPYADPFF [ZC3H18_Y367_YF] shows phosphorylation enrichment of 0.6 or higher.
Result: false

Q: Would you kindly repeat that for RRIHSYRGFLW [VHL_Y112_H115Y_YF] ?
Result: false

Q: RGGWVYVLHPT [TRMT61A_Y67] , same question.
Result: true

Q: Now consider SEASYYKSLNL [NGEF_Y289] and answer again.
Result: false

Q: // query: EARRVYGDIIY [ALDH5A1_Y175_H180Y]
Result: true
